experimentalTarget: WDR5 (Δ23, residues 24-334) (Homo sapiens)
assayName: biochemical
assayContext: Kd (M), FPA-based binding affinity at the WDR5 WIN site; IC50 converted to Kd by modified Cheng-Prusoff equation; average of two experiments
Listed next: entries and their corresponding log10 Kd.
quantityKind: log10 Kd (log10 of the value in M)

1) CCC(=O)N1CCCC(C(=O)NC(C)c2cc(-c3cn4c(n3)CCC4)ccc2OC2CCC2)C1 (stereo not drawn) = -6.51
2) O=C(CCc1cccnc1)NCc1cccc(-c2cn3c(n2)CCC3)c1 = -5.47
3) CC(=O)N1CCCC(C(=O)N(Cc2cccc(-c3cn4c(n3)CCC4)c2)CC2CC2)C1 (stereo not drawn) = -6.10
4) NC(C(=O)NCc1cc(-c2cn3c(n2)CCC3)ccc1N1CCOCC1)c1ccccc1 (stereo not drawn) = -6.75
5) CC(=O)N1CCCC(C(=O)N(Cc2cc(-c3cn4c(n3)CCC4)ccc2N2CCOCC2)CC2CC2)C1 (stereo not drawn) = -7.20
6) CCOc1cccc(C(=O)N(C)Cc2cccc(-c3cn4c(n3)CCC4)c2)c1 = -9.00
7) CC(NC(=O)Cc1ccc(F)c(Cl)c1)c1cccc(-c2cn3c(n2)CCC3)c1 (stereo not drawn) = -5.87
8) O=C(Cc1ccc(Cl)c(Cl)c1)N(Cc1cc(-c2cn3c(n2)CCC3)ccc1N1CCOCC1)CC1CC1 = -7.28
9) Cn1cc(CC(=O)NCc2cccc(-c3cn4c(n3)CCC4)c2)c2ccccc21 = -4.56
10) O=C(NCc1cccc(-c2cn3c(n2)CCC3)c1)C1CCCNC1 (stereo not drawn) = -6.20
11) CC(C)C(NC(=O)Cc1ccc(F)c(Cl)c1)c1cccc(-c2cn3c(n2)CCC3)c1 (stereo not drawn) = -6.93
12) CS(=O)(=O)N1CCCC(C(=O)NCc2cccc(-c3cn4c(n3)CCC4)c2)C1 (stereo not drawn) = -8.52
13) O=C(Cc1c[nH]c2ccccc12)NCc1cccc(-c2cn3c(n2)CCC3)c1 = -6.58
14) Cc1ccccc1-c1ccc(-c2cn3c(n2)CCC3)cc1CNC(=O)Cc1ccc(Cl)c(Cl)c1 = -5.17
15) CC(c1cccc(-c2cn3c(n2)CCC3)c1)N(CC1CC1)C(=O)Cc1ccc(Cl)c(Cl)c1 (stereo not drawn) = -7.96
16) O=C(Cc1cccc(Br)c1)NCc1cccc(-c2cn3c(n2)CCC3)c1 = -6.51
17) O=C(Cc1ccc(F)c(Cl)c1)N(Cc1cc(-c2cn3c(n2)CCC3)ccc1N1CCOCC1)CC1CCOCC1 = -6.34
18) COc1cccc(C(=O)NCc2cc(-c3cn4c(n3)CCC4)ccc2N2CCOCC2)c1 = -6.74
19) COc1cccc(C(=O)N(Cc2cc(-c3cn4c(n3)CCC4)ccc2N2CCCC2)CC2CC2)c1 = -6.29
20) CC(=O)N1CC(CC(=O)NCc2cccc(-c3cn4c(n3)CCC4)c2)C1 = -8.00
21) O=C(Cc1cccnc1)NCc1cccc(-c2cn3c(n2)CCC3)c1 = -5.91
22) CCOc1cccc(C(=O)NCc2cccc(-c3cn4c(n3)CCC4)c2)c1 = -6.83
23) COc1cccc(C(=O)NCc2cc(-c3cn4c(n3)CCC4)ccc2N2CCN(C)CC2)c1 = -5.65
24) CN1CCN(c2ccc(-c3cn4c(n3)CCC4)cc2CNC(=O)Cc2ccc(Cl)c(Cl)c2)CC1 = -6.92
25) O=C(Cc1ccc(Cl)c(Cl)c1)N(Cc1cc(-c2cn3c(n2)CCC3)ccc1OCC1CC1)CC1CC1 = -6.70
26) O=C(C1CCCNC1)N(Cc1cccc(-c2cn3c(n2)CCC3)c1)CC1CC1 (stereo not drawn) = -4.57
27) COc1ccc(CN(Cc2cccc(-c3cn4c(n3)CCC4)c2)C(=O)c2ccc(OC)c(OC)c2)cc1 = -6.38
28) CCC(=O)N1CCCC(C(=O)NC(C)c2cccc(-c3cn4c(n3)CCC4)c2)C1 (stereo not drawn) = -7.96
29) O=C(Cc1ccc(Cl)c(Cl)c1)NCc1cc(-c2cn3c(n2)CCC3)ccc1N1CCCCC1 = -4.56
30) COc1cccc(CN(Cc2cccc(-c3cn4c(n3)CCC4)c2)C(=O)c2ccc(OC)c(OC)c2)c1 = -6.27
31) O=C(NCc1cccc(-c2cn3c(n2)CCC3)c1)C1CCNCC1 = -5.38
32) COc1cc(C(=O)NC(C)c2cc(-c3cn4c(n3)CCC4)ccc2N2CCOCC2)ccc1C (stereo not drawn) = -7.33
33) COc1cccc(C(=O)NCc2cc(-c3cn4c(n3)CCC4)ccc2N2CCCCC2)c1 = -6.98
34) O=C(NCc1cccc(-c2cn3c(n2)CCC3)c1)c1ccc2c(c1)OCO2 = -5.93
35) CC(=O)N1CCCC(C(=O)NCc2cc(-c3cn4c(n3)CCC4)ccc2N2CCOCC2)C1 (stereo not drawn) = -7.17
36) CC(=O)N1CCCC(C(=O)N(Cc2cc(-c3cn4c(n3)CCC4)ccc2OC2CCC2)CC2CC2)C1 (stereo not drawn) = -5.00

====

experimentalTarget: WDR5 (Δ23, residues 24-334) (Homo sapiens)
assayName: biochemical
assayContext: Kd (M), FPA-based binding affinity at the WDR5 WIN site; IC50 converted to Kd by modified Cheng-Prusoff equation; average of two experiments
quantityKind: Kd (M)

1) CC(=O)N1CCCC(C(=O)NC(C)c2cccc(-c3cn4c(n3)CCC4)c2)C1 (stereo not drawn) = 1e-08
2) O=C(Cc1ccc(Cl)c(Cl)c1)NCc1cc(-c2cn3c(n2)CCC3)ccc1OCc1ccccc1 = 2.76e-07
3) CC(C(=O)NCc1cccc(-c2cn3c(n2)CCC3)c1)c1ccccc1 (stereo not drawn) = 4.35e-07
4) Cc1cc(C(=O)N(C)Cc2cccc(-c3cn4c(n3)CCC4)c2)ccc1Cl = 4.48e-07
5) O=C(NCc1cccc(-c2cn3c(n2)CCC3)c1)c1ccc(F)cc1 = 5e-06
6) COc1cc(C(=O)NCc2cc(-c3cn4c(n3)CCC4)ccc2N2CC(C)OC(C)C2)ccc1C (stereo not drawn) = 1.12e-07
7) Cc1cnc(Cl)c(C(=O)NCc2cccc(-c3cn4c(n3)CCC4)c2)c1 = 6.68e-07
8) Cc1cc(NC(=O)NCc2cccc(-c3cn4c(n3)CCC4)c2)ccc1Cl = 3.91e-07
9) O=C(CCc1ccccc1)N(Cc1cccc(-c2cn3c(n2)CCC3)c1)CC1CC1 = 1.82e-06

====

experimentalTarget: WDR5 (Δ23, residues 24-334) (Homo sapiens, UniProt P61964)
assayName: biochemical
assayContext: Kd (M), FPA-based binding affinity at the WDR5 WIN site; IC50 converted to Kd by modified Cheng-Prusoff equation; average of two experiments
quantityKind: Kd (M)

1) CC(=O)N1CCC(C(=O)NCc2cccc(-c3cn4c(n3)CCC4)c2)CC1 [B25] = 1.37e-06
2) O=C(Cc1ccc(Cl)c(F)c1)NCc1cccc(-c2cn3c(n2)CCC3)c1 [B82] = 5.02e-07
3) O=C(Cc1cc(Cl)cc(Cl)c1)N(Cc1cccc(-c2cn3c(n2)CCC3)c1)CC1CC1 [B60] = 2.85e-07
4) O=C(Cc1ccc(F)c(Cl)c1)NCc1cccc(-c2cn3c(n2)CCC3)c1 [B155] = 1.05e-07
5) CC(NC(=O)Cc1ccc(Cl)c(Cl)c1)c1cccc(-c2cn3c(n2)CCC3)c1 (centres unmarked) [B192] = 1.25e-07

====

experimentalTarget: WDR5 (Δ23, residues 24-334) (Homo sapiens)
assayName: biochemical
assayContext: Kd (M), FPA-based binding affinity at the WDR5 WIN site; IC50 converted to Kd by modified Cheng-Prusoff equation; average of two experiments
quantityKind: Kd (M)

1. O=C(NCc1ccccc1)NCc1cccc(-c2cn3c(n2)CCC3)c1 = 2.71e-06
2. O=C(C1CC1c1ccccc1)N(Cc1cccc(-c2cn3c(n2)CCC3)c1)CC1CC1 (stereo not drawn) = 4.85e-07
3. Cc1cc(C(=O)N(Cc2cccc(-c3cn4c(n3)CCC4)c2)CC2CC2)ccc1Cl = 2.96e-05
4. O=C(Cc1ccc(Br)cc1)NCc1cccc(-c2cn3c(n2)CCC3)c1 = 1.33e-07
5. COc1cc(C(=O)NC(C)c2cccc(-c3cn4c(n3)CCC4)c2)ccc1C (stereo not drawn) = 2.3e-08
6. O=C(NCc1cccc(-c2cn3c(n2)CCC3)c1)c1ccc2c(c1)OCCO2 = 8.08e-07
7. O=C(NCc1cccc(-c2cn3c(n2)CCC3)c1)c1cc(Cl)cc(Cl)c1 = 2.28e-06
8. O=C(Nc1cc(Cl)cc(Cl)c1)N(Cc1cccc(-c2cn3c(n2)CCC3)c1)CC1CC1 = 4.8e-07
9. O=C(Cc1cc(Cl)cc(Cl)c1)NCc1cccc(-c2cn3c(n2)CCC3)c1 = 2.08e-07

The origin of these recorded values is patent US10160763B2.
